Source of measurements: patent US20220241437A1

- test_description: Half-life of MB in rabbit bloodstream from fluorescence intensity over time
- Type: in vivo
- measurement_parameters: blood, intravenous, 1 mg/kg, rabbit subject m463, read-out: half-life of MB in bloodstream (converted)
measured_quantity: half-life

Request: Assign half-life to the following record: CN(C)c1ccc2nc3ccc(N(C)C)cc3[s+]c2c1.[Cl-]
Result: ~3 h

---

- test_description: Half-life of MB in rabbit bloodstream from fluorescence intensity over time
- Type: in vivo
- measurement_parameters: blood, intravenous, 1 mg/kg, 1 phase exponential decay of fluorescence intensity, read-out: half-life of MB in bloodstream (converted)
measured_quantity: half-life (h)
Reply numerically in h, unit not repeated.

Request: Supply reported half-life belonging to this compound: CN(C)c1ccc2nc3ccc(N(C)C)cc3[s+]c2c1.[Cl-]
Result: 7.35

---

- test_description: Half-life of MB in rabbit bloodstream from fluorescence intensity over time
- Format: in vivo
- measurement_parameters: blood, intravenous, 1 mg/kg, read-out: half-life of MB in bloodstream (converted)
measured_quantity: half-life

Request: Please list half-life recorded for the molecule CN(C)c1ccc2nc3ccc(N(C)C)cc3[s+]c2c1.[Cl-] [MB]
Result: ~7.4 h
